molecular target: c-Myc template DNA (c-myc quadruplex); assay: Quadruplex binding / stop assay (Taq polymerase arrest, capillary electrophoresis); settings: read-out: Stop Data c-Myc μM; concentration at which 50% of the DNA was arrested (arrested:full-length 1:1)
Measure: IC50 (µM)

> print(dat)
                                   compound  measure  unit.info  experimental.value
1  O=C(CCN1CCCC1)Nc1c(F)cc2c(=O)c(C(=O)NCCN3CCCC3)cn3c2c1Oc1cc2ccccc2cc1-3     IC50         µM                 2.5
2  O=C(NCCN1CCCC1)c1cn2c3cc4oc5cc([N+](=O)[O-])ccc5[nH]c4cc3oc3c(NCCN4CCCC4)c(F)cc(c1=O)c32     IC50         µM                 0.5
3  CN1CCN(C(=O)c2cn3c4cc5c(=O)c6ccccc6c(=O)c5cc4oc4c(N5CCC(N)C5)c(F)cc(c2=O)c43)CC1 (stereo not drawn)     IC50         µM                 2.5
